Assay: amyloid nucleation score (Sup35N fusion, yeast selection) (log enrichment); library NNK3; higher = more nucleation; inactive = no reads after selection;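 note: zero at mode of non-aggregating sequences after 7 days selection at 30°C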
Endpoint Label: amyloid nucleation score

Known amyloid nucleation score results, listed for orientation:
[
  {
    "Substance": "RLSLKSFVRFQRLCP",
    "amyloid nucleation score": "inactive"
  },
  {
    "Substance": "ATRASPMSGTYSCTFKIIFL",
    "amyloid nucleation score": 2.94
  },
  {
    "Substance": "RYHYLSSLSMNVNTGELWMD",
    "amyloid nucleation score": "inactive"
  },
  {
    "Substance": "FKAPWLSGP",
    "amyloid nucleation score": "inactive"
  },
  {
    "Substance": "ILRSLVSLWYGCDCW",
    "amyloid nucleation score": 0.661
  },
  {
    "Substance": "PIIFNFLRIM",
    "amyloid nucleation score": 1.7
  }
]

What measured amyloid nucleation score goes with TFNSLVCQFIKPLHHLFATL ?
inactive

For the substance FVSLLWLRGDVVHALFIQWM , what amyloid nucleation score is on record?
inactive
